Where do the numbers come from? From patent US20240383932A1.

experiment: Solubility in various buffers
Format: physicochemical
measurement_setup: SGF, simulated gastric fluid, thermodynamic from solid; read-out: Solubility
recorded_endpoint: solubility (µg/mL)
Numbers only, in µg/mL.

Memo: CC(C)(C)c1cc(C(C)(C)C)c(NC(=O)c2c[nH]c3ccccc3c2=O)cc1O [ivacaftor, reference compound] , reported solubility: 21

###

experiment: Solubility in various buffers
Assay type: physicochemical
measurement_setup: FeSSIF.V2, fessif, thermodynamic from solid; read-out: Solubility
recorded_endpoint: solubility (µg/mL)
Numbers only, in µg/mL.

Memo: CC(C)(C)c1cc(C(C)(C)C)c(NC(=O)c2c[nH]c3ccccc3c2=O)cc1O [ivacaftor, reference compound] , reported solubility: 152

###

experiment: Solubility in various buffers
Assay type: physicochemical
measurement_setup: aqueous buffer, thermodynamic from solid; pH 6.8 PO4^3− buffer; read-out: Solubility
recorded_endpoint: solubility

Memo: CC(C)OC(=O)[C@H](C)N[P@@](=O)(OCCN1CCOCC1)Oc1cc(NC(=O)c2c[nH]c3ccccc3c2=O)c(C(C)(C)C)cc1C(C)(C)C.O=C(O)CCC(=O)O [Compound 15] , reported solubility: < 2 µg/mL

###

experiment: Solubility in various buffers
Assay type: physicochemical
measurement_setup: FaSSIF.V2, fassif, thermodynamic from solid; read-out: Solubility
recorded_endpoint: solubility (µg/mL)
One number for each entry, in µg/mL.

Memo: CC(C)(C)c1cc(C(C)(C)C)c(NC(=O)c2c[nH]c3ccccc3c2=O)cc1O [ivacaftor, reference compound] , reported solubility: 15
